The reported numbers originate from the NIST ThermoML archive (doi:10.1021/je200806n).

Conditions: 308.15 K; 101.3 kPa; Liquid
Provide the reported viscosity of each item.
Answers are plain numbers, in mPa·s.

Solved entries (count: 2):
compound: O=C1CCCCC1 [cyclohexanone]
metric: viscosity
unit-symbol: mPa·s
recorded-measurement: 1.694
--
compound: CC(C)O [propan-2-ol]
metric: viscosity
unit-symbol: mPa·s
recorded-measurement: 1.563

Required: viscosity, one value per compound below.
1. CCC(C)O (stereo unspecified) [butan-2-ol]
2. CCCCC(C)O (stereo unspecified) [2-hexanol]
3. CCCC(C)O (stereo unspecified) [pentan-2-ol]
4. CCCCCC(C)O (stereo unspecified) [2-heptanol]

2.152
2.819
2.334
3.478
